Test system: TO-3-N3-2 (biotin conjugate)
Experiment: pull-down binding Z-score (relative to library population); higher = stronger binding
Conditions: RNA library: Library-2
# label = Criterion met if pull-down binding Z-score >= -0.1 else Criterion not met

Some solved cases for reference:
> print(dat)
                              sequence.code     assigned.class
1   GGGGUGAAGAGGAUACUUACCUG [U1snRNP5ss-12]      Criterion met
2  UGUGGACAAGGGCCUUGUCUUAGACAGUCACU [hsa-mir-4318]      Criterion met
3  UAUUUCAAAAGACUAGAGGUAGGAAAUGAG [hsa-mir-3975]      Criterion met
4  CCUGGUCAUGCAGAUCUCAGUGCCAAGGAGGCACAGGAUGUAAUCAUGGAAGUUGUUUUCCCUAACGAAGUGGGAGCCAGG  Criterion not met
5  ACAAUGGCAGACCUCGUCUAUGCUUUAAGGCAUUUUGAUGAAGGUAAUUGU  Criterion not met

stdin: Exam item: decide whether the reported pull-down binding Z-score for CAUACAUAUGCCUACUACUACUUUCAUAUGUAGGCAUAUGUAUG [hsa-mir-7852] is at least -0.1.
stdout: Criterion not met

stdin: I'd appreciate it if you could say whether AACAGCUUUGCGAAGUGUUGUU [hsa-mir-4425] has pull-down binding Z-score at least equal to -0.1.
stdout: Criterion not met

stdin: I'd appreciate it if you could say whether UUGUUCGUUGCAUUUUUAGGAACAA [hsa-mir-3613] has pull-down binding Z-score at least equal to -0.1.
stdout: Criterion not met

stdin: Quick check, pull-down binding Z-score >= -0.1? CAGGCCAGGGGCAGACAGUGGACAGAGAACAGUGCCCAAGACCACUG [hsa-mir-378e]
stdout: Criterion met

###

Test system: TO-3-N3 (biotin conjugate)
Experiment: pull-down binding Z-score (relative to library population); higher = stronger binding
Settings: RNA library: Library-2
Would you mind labelling by pull-down binding Z-score? At or over -0.2 is y, under is n.

> print(dat)
                              sequence.code  assigned.class
1  GGAGUUCAAAUUGCUUCC [IAV_invivo_NP_5_Motif_19+IAV_invivo_NP_5_Motif_19]               n
2  GUUCGGAUGCUCGAACUGCACCUCAUGGUCAUGUUAUGGUUGAGCUGGUAGCAGAACUCGAAGGCAUUCAGUAC [DMSMaPseq_invitro_SARS-CoV-2_Motif_11]               n
3  AUUAGAGAAAACAACAGAGUUGUUAUUUCUAGU [DMSMaPseq_invitro_SARS-CoV-2_Motif_378]               y
4  GAGUUUGGAAUUAAAAUCAAAACC [hsa-mir-181a-1]               n
5    CAGUGCUUUUAGAAAAUUUGUGUG [hsa-mir-581]               n
6  GGAGCUCUGUGCCUUUGGGUCCUGGUGAGCUCU [hsa-mir-6070]               y

stdin: Reported pull-down binding Z-score reaches at least -0.2 for UUGGCGUUAAGAUUCUAAAAUUAUCUCCAG [hsa-mir-16-1] ?
stdout: n

stdin: Quick check, pull-down binding Z-score >= -0.2? GGCCUGGGAUUCCUGCCUUCUAGGUC [hsa-mir-8078]
stdout: y

stdin: Is it the case that CUGAGCGGCUCCAUCCCCCGGCCUGCUCAU [hsa-mir-6729] has pull-down binding Z-score reaching or exceeding -0.2?
stdout: y

stdin: Is it the case that GGCGUCUCAAGGCACC [IAV_invivo_NP_5_Motif_2+IAV_invivo_NP_5_Motif_2] has pull-down binding Z-score reaching or exceeding -0.2?
stdout: y

stdin: Determine whether measured pull-down binding Z-score meets or exceeds -0.2 for "GAUUUUGGGACUACCAACUC"
stdout: n

stdin: Check if pull-down binding Z-score >= -0.2 (inclusive). Item: CCUGCCACGUCAAAGGAGGCAGA [hsa-mir-3154]
stdout: n

stdin: Form field: pull-down binding Z-score at least -0.2? Entry: CACAUCAGUAGUCUUACUCUCAGUUUUGCAACAACUCAGAGUAGAAUCAUCAUCUAAAUUGUG [DMSMaPseq_invitro_SARS-CoV-2_Motif_209]
stdout: n

stdin: Evaluate GGUUUGCGCCUCAAGAAACC [hsa-mir-1255b-2] : pull-down binding Z-score at minimum -0.2?
stdout: y

stdin: Could you verify whether the entry GGAUUGUACAGAAAGUGUGUUAAAUCC [SHAPE_invivo_SARS-CoV-2_Motif_47] shows pull-down binding Z-score of no less than -0.2?
stdout: n

stdin: Entry AGUGAGUUGAUUACUUCUCACU [hsa-mir-4676] : is its pull-down binding Z-score no less than -0.2?
stdout: y

stdin: Hi, just wondering whether UGAGCAUUCUAGCAGCAGUUUGAUGAUCA [hsa-mir-6516] shows pull-down binding Z-score of -0.2 or higher.
stdout: n

###

System: G-clamp-N3 (biotin conjugate)
Assay: pull-down binding Z-score (relative to library population); higher = stronger binding
Conditions: RNA library: Library-1 (pre-miRNA loops + repeats)
metric: pull-down binding Z-score
Numbers only.

> print(dat)
                              sequence.code                     metric  result.number
1  AACUGUGCGGCCGGCCACACCGUCACACCGGGU [hsa-mir-8083]  pull-down binding Z-score         -0.324
2  AGCUGGCUGAAGGGCAGAAGGGAACUGUCCUUCAGCCAGAG [hsa-mir-4487]  pull-down binding Z-score         -0.139

For each of the sequences below, note its pull-down binding Z-score.
1. CAGUGAGCCAAGAUCGUGCCACUG [hsa-mir-1273d]
2. GAAAAAUCCCUGUUAACUUUC [hsa-mir-6833]

stdout:
1: -0.48; 2: -0.686

List pull-down binding Z-score for every entry below, keeping the order given.
1. UCAGCUGUAAUACAUGGAUUGGCUGG [hsa-mir-30b]
2. AGGGCCUUCUGAGCCCAGGUCCG [hsa-mir-6716]
3. GCCCGGGCACCGCCCCUU [hsa-mir-718]
4. CCUGACAGACAGCCUGAUAGACAGG [hsa-mir-4661]

stdout:
0.592
0.286
-1.53
-0.998

Report pull-down binding Z-score for each item below.
1. GAGUCCUAUUUAUUUUUAGGAUAUUAGGAA [hsa-mir-5692c-2]
2. AGCCCUGGGCUCCUCAGCAAACCUACUGGAU [hsa-mir-3174]

stdout:
1: -0.397; 2: -1.41

###

Please provide measured pull-down binding Z-score for the entries that follow.
System: TO-3-N3-2 (biotin conjugate)
Assay: pull-down binding Z-score (relative to library population); higher = stronger binding
Settings: RNA library: Library-2
Numbers only.

Below, 2 sequences whose answers are already recorded.
> print(dat)
                              sequence.code  result.number
1  AAAUCCCGUUAAUAAGUAAGAGGAUUU [hsa-mir-2113]          0.143
2  GUCAAAGUGACUAUUGAC [SHAPE_invitro_SARS-CoV-2_Motif_373]         -0.444

Dear colleague, could you send me pull-down binding Z-score for each of the items below? Thanks.
1. CAGACAAUAUAGCUGAGUUUGUCUG [hsa-mir-215]
2. GGAGCCUUCCCCAGAGGAGUCAGGCC [hsa-mir-4312]
3. GGCCGUUUGAGAUGUCC [hsa-mir-3674]
4. CUGGCCAUCAGUGUGGGCUAAC [hsa-mir-6732]
5. ACCAACCACCACAAACCUCUAUCACCUCAGCUGUUUUGCAGAGUGGUUUUAGAAAAAUGGCAUUCCCAUCUGGU

stdout:
1: -0.547; 2: -0.0198; 3: -0.132; 4: -0.117; 5: 0.384

Batch lookup, pull-down binding Z-score per entry.
1. CUGAAAAUACAAAAUGGAAAAUUCCAG [hsa-mir-4494]
2. GUUUAUUUUGUAGC [hsa-mir-4317]
3. GUUGUAGACGGUUGUAAUUCAUCAACUUGUAUGAUGUGUUACAAACGUAAUAGAGCAAC

stdout:
1: 0.256; 2: -0.0511; 3: -0.529

###

Test system: TO-N3 (biotin conjugate)
Experiment: pull-down binding Z-score (relative to library population); higher = stronger binding
Conditions: RNA library: Library-2
Exercise: for every item that follows, state its recorded pull-down binding Z-score.
Give bare numbers.

> print(dat)
                              sequence.code                     metric  result.number
1  UGAGCAGGCCCAGAACCCAGCUCGUGCUCA [hsa-mir-6794]  pull-down binding Z-score           0.56
2      GACGAUUUGAAUUAAUAAAUUC [hsa-mir-579]  pull-down binding Z-score          0.153
3  UUUACUUUUGGCCUCAAGUCAUUGCAGUAAA [hsa-mir-4796]  pull-down binding Z-score         -0.832
4  GCAAGGCUGUAGUGUGCACAGCCUUGA [hsa-mir-4452]  pull-down binding Z-score          0.936
5  CCGUAUAUAUAUAUAUAUAUAUAUAGAUAUCUCCAUAUAUAUGG [hsa-mir-620]  pull-down binding Z-score          -1.16

State the recorded pull-down binding Z-score for every item in the following list.
1. CUUGAACAAUGGAACCUAGUAAUAGGUUUCCUAUUCCUUACAUGGAUUUGUCUUCUACAAUUUGCCUAUGCCAACAGG
2. GUCUGGGAUCAACGAGUCAGCGGAC [IAV_invivo_PB1_2_Motif_28+IAV_invivo_PB1_2_Motif_28]
3. ACAUGCAGUAUUUGG [hsa-mir-1302-8]
4. CCAGUAUCUGAAUUACUUACACCACUGG [SHAPE_invivo_SARS-CoV-2_Motif_58]
5. CAUUCACAUAGACUAUAAUUGAAUG [hsa-mir-652]
6. GGCAGACGUGGUCCAGAACAAACCCAAGGAAAUUUUGGGGACCAGGAACUAAUCAGACAAGGAACUGAUUACAAACAUUGGCC
7. UGCUCUGAUGAAGACCCAUGUGGC [hsa-mir-621]
8. AACGGGGCGGGCCUGGGCGGGGUAA [G4_2A2_VEGF-Pu22-del]

stdout:
1: -0.466; 2: -0.256; 3: -0.242; 4: 0.688; 5: -0.944; 6: 0.753; 7: 0.589; 8: 7.15

I have 2 sequences here; please give me pull-down binding Z-score for each one.
1. AGGGGUCAUAUCUCUUCUCAGGGAAAGCAGGAGCCCUUCAGCAGGGUCAGGGCCCCU [hsa-mir-6891]
2. UUUAGAAAAGAGAAUUCCAAA [hsa-mir-1252]

stdout:
1. 0.761
2. -0.315
